# TESTED_TARGET: T1, human IL4Rα/Fc (R and D Systems 604-4R) (human, UniProt P24394 26-231, limits assumed, biotin labelled in the assay of Example 5)
# T1 construct: bought protein; also called IL-4Rα/Fc (R&D systems Cat. No. 604-4R-050); not shown: Fc part of the bought fusion
# T1 sequence (looked up): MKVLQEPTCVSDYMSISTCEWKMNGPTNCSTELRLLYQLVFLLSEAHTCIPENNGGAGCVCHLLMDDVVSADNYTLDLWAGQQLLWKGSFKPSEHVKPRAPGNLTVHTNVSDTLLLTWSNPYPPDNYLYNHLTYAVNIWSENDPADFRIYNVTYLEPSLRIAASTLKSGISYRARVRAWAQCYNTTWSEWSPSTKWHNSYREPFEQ
# ASSAY_EXPLANATION: HTRF receptor-ligand assay, purified scFv against biotinylated human IL4
PARAMETER_MEASURED: Ki (nM)
// return numeric value only (unit: nM, not printed)

>  <BINDER>
Antibody 38 scFv (scFv, V domains shown, tested as purified scFv) VH: QVQLVQSGAEVKKPGASVKVSCKASGYAFTSYYMHWARQAPGQGLEWMGIINPSGGSASYAQKFQGRVTMTRDTSTSTVYMELSSLRSEDTAVYYCARGKYWMYDWGKGTLVTVSS VL: QSVLTQPPSVSAAPGQKVTISCSGGSSNIGNSYVSWYQQLPGTAPKLLIYDNNKRPSGIPDRFSGSKSGTSATLAITGLQTGDEADYFCGTWDTSTVWEWPFGTGTKLTVL

>  <Ki [nM]>
0.066

$$$$

Now examine the next entry.
GET /value?item= Antibody 31 scFv (scFv, V domains shown, tested as purified scFv) VH: QVQLVQSGAEVKKPGASVKVSCKASGYAFTSYYMHWARQAPGQGLEWMGIINPSGGSTSYAQKFQGRVTMTRDTSTSTVYMELSSLRSEDTAVYYCARGKYWMYDWGKGTLVTVSS VL: QSVLTQPPSVSAAPGQKVTISCSGGSSSIGNSYVSWYQQLPGTAPKLLIYDNNKRPSGIPDRFSGSKSGTSATLAITGLQTGDEADYYCGTWATSPVWEWPFGTGTKLTVL &field=Ki returns 0.044
